Quick reference for ratio percent of control among some compounds
- systemUnderTest: Potassium channel subfamily K member 3 (Homo sapiens)
- assayComment: TASK1 potassium channel blockade, triplicate retest – CHO cells, FluxOR thallium flux, confirmation (AID 651638);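 further: ratio is the fluorescence rise from min to max over baseline after thallium stimulus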
- testParameters: CHO-KCNK3 thallium flux, FluxOR fluorescence; at 10 µM; stronger effect = higher value; 0% buffer, 100% carvedilol maximal block
About 2,400 (100%) of roughly 2,400 compounds were called active. So high a share suggests a set chosen from earlier hits. Not all results are given here.

- compound: "C=CCc1cc(S(=O)(=O)c2ccc(O)c(CC=C)c2)ccc1O"
  readoutUnits: "%"
  ratio percent of control: 106
- compound: "O=C(Oc1ccc(Br)cc1C(=S)N1CCOCC1)c1cccc([N+](=O)[O-])c1"
  readoutUnits: "%"
  ratio percent of control: 103
- compound: "COc1ccc([N+](=O)[O-])cc1-c1nc2ccccc2nc1-c1ccccc1"
  readoutUnits: "%"
  ratio percent of control: 127
- compound: "Cc1cccc(C(=O)Nc2ccccc2N2CCN(c3ccc(F)cc3)CC2)c1"
  readoutUnits: "%"
  ratio percent of control: 119
- compound: "COC(=O)c1ccc(COC(=O)C2CCN(S(=O)(=O)c3c(Cl)cccc3Cl)CC2)o1"
  readoutUnits: "%"
  ratio percent of control: 85.3
- compound: "COc1ccc(Nc2ncnc3sc(-c4ccccc4)cc23)c(OC)c1"
  readoutUnits: "%"
  ratio percent of control: 112
- compound: "CC(C)c1cc(C(=O)N/N=C/c2ccoc2)c(O)c(C(C)C)c1"
  readoutUnits: "%"
  ratio percent of control: 123
- compound: "O=C(N/N=C/c1cccc(OCc2ccccc2)c1)c1ccc(Br)o1"
  readoutUnits: "%"
  ratio percent of control: 116
- compound: "C=CCN(C(=O)c1cc(C)cc(C)c1)C1(C(=O)Nc2ccccc2)CCN(C(C)C)CC1"
  readoutUnits: "%"
  ratio percent of control: 93
- compound: "CC(Sc1nc2ccccc2c(=O)n1Cc1ccco1)C(=O)c1ccccc1 (stereo not given)"
  readoutUnits: "%"
  ratio percent of control: 97

###

- systemUnderTest: Potassium channel subfamily K member 3 (Homo sapiens)
- assayComment: TASK1 potassium channel blockade, triplicate retest – CHO cells, FluxOR thallium flux, confirmation (AID 651638);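 further: ratio is the fluorescence rise from min to max over baseline after thallium stimulus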
- testParameters: CHO-KCNK3 thallium flux, FluxOR fluorescence; at 10 µM; stronger effect = higher value; 0% buffer, 100% carvedilol maximal block
About 2,400 (100%) of roughly 2,400 compounds were called active. So high a share suggests a set chosen from earlier hits. Not all results are given here.
recordedMetric: ratio percent of control (%)

- molecule: "CCn1ncc(Br)c1C(=O)Nc1cc(C)ccc1F"
  readoutUnits: "%"
  observedResult: 87.3
- molecule: "CCOc1ccccc1Oc1cn[nH]c1-c1ccc(OC)cc1O"
  readoutUnits: "%"
  observedResult: 114
- molecule: "COc1ccc(CC(=O)Nc2nc(-c3ccc(F)c(F)c3)cs2)cc1OC"
  readoutUnits: "%"
  observedResult: 134
- molecule: "Cc1cccc(C)c1N1CCN(S(=O)(=O)N2CCCCC2)CC1"
  readoutUnits: "%"
  observedResult: 122
- molecule: "Cc1cccc(-c2nc3ccc(C(=O)NCCN4CCN(C)CC4)cc3nc2-c2cccc(C)c2)c1"
  readoutUnits: "%"
  observedResult: 106
- molecule: "Cc1cc(C)c(C#N)c(SCc2ccc3c(c2)OCO3)n1"
  readoutUnits: "%"
  observedResult: 137
- molecule: "COc1ccc(Cl)cc1NC(=O)C(C)N1CCc2ccccc21 (stereo not drawn)"
  readoutUnits: "%"
  observedResult: 96.3
- molecule: "COc1ccc(-c2nc(CCNC(=O)c3ccc(Br)o3)cs2)cc1"
  readoutUnits: "%"
  observedResult: 84.7
- molecule: "O=C(Nn1c(SCc2ccc([N+](=O)[O-])cc2)nc2ccccc2c1=O)c1ccc(F)cc1"
  readoutUnits: "%"
  observedResult: 139
- molecule: "COC(=O)C1=C(C)N(C(C)c2ccccc2)C(=O)/C1=C\\c1ccco1 (stereo not drawn)"
  readoutUnits: "%"
  observedResult: 105
- molecule: "S=C(Nc1cccc(Br)c1)N1CCn2cccc2C1c1cccnc1 (stereo not drawn)"
  readoutUnits: "%"
  observedResult: 79.7
- molecule: "CSc1nnc2c(n1)OC(c1ccsc1)N(C(C)=O)c1ccccc1-2 (stereo not drawn)"
  readoutUnits: "%"
  observedResult: 106
- molecule: "O=C(NCCc1c[nH]c2ccccc12)c1cccc(Br)c1"
  readoutUnits: "%"
  observedResult: 118
- molecule: "COc1ccccc1N1CCN(/N=C\\C(Br)=C\\c2ccccc2)CC1"
  readoutUnits: "%"
  observedResult: 89.7
- molecule: "CCc1cc(C(c2ccccc2OC)N2CCOCC2)c(NC(=O)c2ccccc2)s1 (stereo not drawn)"
  readoutUnits: "%"
  observedResult: 102
- molecule: "CS/C(=C\\C(=O)c1ccco1)Nc1ccccc1Cl"
  readoutUnits: "%"
  observedResult: 95
- molecule: "FC(F)(F)c1cccc(-c2cc3ccccc3nc2N2CCCC2)c1"
  readoutUnits: "%"
  observedResult: 101
- molecule: "CCCC(=O)Nc1ccc(Cl)c(NC(=O)c2ccc(Br)o2)c1"
  readoutUnits: "%"
  observedResult: 92.7
- molecule: "Cc1cccc2cc(CN(Cc3nnnn3Cc3ccccc3)C3CCCC3)c(=O)[nH]c12"
  readoutUnits: "%"
  observedResult: 115
- molecule: "C=CCSc1nsc(NC(=O)Nc2cccc(C(C)=O)c2)n1"
  readoutUnits: "%"
  observedResult: 109
- molecule: "O=C(Nc1cccc(S(=O)(=O)Nc2ccc(Cl)cc2)c1)c1ccc2c(c1)OCCO2"
  readoutUnits: "%"
  observedResult: 105
- molecule: "Cc1nc2ccccc2cc1OCc1ccc(F)cc1"
  readoutUnits: "%"
  observedResult: 134
- molecule: "CC[n+]1cc(C)ccc1/C=C/c1ccc(N(C)C)cc1"
  readoutUnits: "%"
  observedResult: 143

###

- systemUnderTest: Potassium channel subfamily K member 3 (Homo sapiens) (UniProt O14649)
- Sequence (O14649 whole entry, looked up): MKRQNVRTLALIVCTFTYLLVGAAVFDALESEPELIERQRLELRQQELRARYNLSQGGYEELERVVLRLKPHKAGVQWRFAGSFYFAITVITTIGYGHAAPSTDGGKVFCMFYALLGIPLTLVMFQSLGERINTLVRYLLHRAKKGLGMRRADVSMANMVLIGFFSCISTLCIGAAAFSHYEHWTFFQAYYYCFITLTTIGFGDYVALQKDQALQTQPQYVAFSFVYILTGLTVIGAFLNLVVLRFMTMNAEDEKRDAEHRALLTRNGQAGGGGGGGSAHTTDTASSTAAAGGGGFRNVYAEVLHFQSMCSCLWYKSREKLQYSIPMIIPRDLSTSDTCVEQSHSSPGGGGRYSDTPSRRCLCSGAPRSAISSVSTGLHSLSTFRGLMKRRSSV
- assayComment: TASK1 potassium channel blockade, triplicate retest – CHO cells, FluxOR thallium flux, confirmation (AID 651638);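 further: ratio is the fluorescence rise from min to max over baseline after thallium stimulus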
- testParameters: CHO-KCNK3 thallium flux, FluxOR fluorescence; at 10 µM; stronger effect = higher value; 0% buffer, 100% carvedilol maximal block
Among all 2,400 compounds or so, about 2,400 (100%) were called active. So high a share suggests a set chosen from earlier hits. These entries were drawn from the full list.
Quick reference for ratio percent of control among some molecules

- molecule: "COc1ccc(C2Nc3ccccc3C(=O)N2Cc2ccccc2)cc1Cn1nnc2ccccc21 (configuration not stated)"
  ratio percent of control: "110% (active)"
- molecule: "COc1cccc(NC(=S)N(CCc2c(C)[nH]c3ccccc23)Cc2ccco2)c1"
  ratio percent of control: "113% (active)"
- molecule: "CN1CCc2ccccc2C1Cc1ccccc1NC(=O)c1sc2ccccc2c1Cl (configuration not stated)"
  ratio percent of control: "114% (active)"
- molecule: "CC(NCc1cccs1)C(=O)Nc1cc(Cl)cc(Cl)c1 (configuration not stated)"
  ratio percent of control: "96.3% (active)"
- molecule: "CC(C)CCNC(=O)C(C)N(C(=O)Cn1nnc(-c2ccc(F)cc2)n1)C1CCCC1 (configuration not stated)"
  ratio percent of control: "74% (active)"
- molecule: "COc1ccc(S(=O)(=O)NCCCCOc2ccc(Cl)cc2)cc1"
  ratio percent of control: "123% (active)"
- molecule: "COc1cccc(COc2ccc(N(C)S(=O)(=O)c3ccccc3)cc2)c1"
  ratio percent of control: "132% (active)"
- molecule: "COc1ccccc1C(c1nnnn1C(C)(C)C)N1CCN(Cc2ccccc2)CC1 (configuration not stated)"
  ratio percent of control: "109% (active)"
- molecule: "Cc1nonc1C1CCCN1C(=O)c1cc(COc2cccc(C(F)(F)F)c2)on1 (configuration not stated)"
  ratio percent of control: "87.3% (active)"
- molecule: "COCCNc1cc(-c2ccccc2)nc2cc(-c3cccc(F)c3)nn12"
  ratio percent of control: "130% (active)"
- molecule: "Cc1nc(N2CCN(c3ccccn3)CC2)c2c(C)c(C(=O)Nc3ccc(F)cc3)sc2n1"
  ratio percent of control: "125% (active)"
- molecule: "Cc1ccc(S(=O)(=O)NCc2cn3ccsc3n2)c(C)c1"
  ratio percent of control: "64% (active)"
- molecule: "c1ccc2c(NC3C4CC5CC(C4)CC3C5)nc(N3CCOCC3)nc2c1 (configuration not stated)"
  ratio percent of control: "122% (active)"
- molecule: "CCc1ccc2nc3sc(C(=O)Nc4nnc(CC)s4)c(N)c3cc2c1"
  ratio percent of control: "116% (active)"
- molecule: "CC(=O)c1ccccc1OCc1ccc(C(=O)c2ccccc2)cc1"
  ratio percent of control: "121% (active)"
- molecule: "Clc1cccc(-c2nc(NCC3CCCO3)c3ccccc3n2)c1 (configuration not stated)"
  ratio percent of control: "130% (active)"
- molecule: "COc1cc(C(=O)Nc2oc(-c3ccccc3)c(-c3ccccc3)c2C#N)cc(OC)c1OC"
  ratio percent of control: "119% (active)"
- molecule: "COc1ccc(CN(C)C(=O)c2cc(-c3ccc(C)cc3C)nc3ccccc23)c(OC)c1OC"
  ratio percent of control: "129% (active)"
- molecule: "COC(=O)c1cc(NC2c3ccccc3C(=O)N2c2ccc(Cl)cn2)cc(C(=O)OC)c1 (configuration not stated)"
  ratio percent of control: "115% (active)"
- molecule: "COc1cc(Cl)c(S(=O)(=O)N2CCN(Cc3ccc4c(c3)OCO4)CC2)cc1Cl"
  ratio percent of control: "107% (active)"
- molecule: "CCCCCCCCCCOC(=O)Cn1c(COc2cccc(OC)c2)[n+](C)c2ccccc21"
  ratio percent of control: "119% (active)"
- molecule: "N#Cc1cccc(NC(=O)COC(=O)c2ccccc2C(=O)c2ccc(Cl)c([N+](=O)[O-])c2)c1"
  ratio percent of control: "135% (active)"
- molecule: "O=C(Nc1cccc(Cl)c1)Nc1ccccc1NS(=O)(=O)c1cccs1"
  ratio percent of control: "138% (active)"
- molecule: "CC(=O)Nc1cccc(OCC(=O)/C=C2\\N(C)c3ccccc3C2(C)C)c1"
  ratio percent of control: "124% (active)"
- molecule: "Cc1cccc2c1-c1sc(C(=O)NCCCN3CCc4ccccc4C3)cc1CO2"
  ratio percent of control: "90.3% (active)"
- molecule: "CC(C(=O)NCC1CCCCC1)N(C)Cc1cccc(Cl)c1 (configuration not stated)"
  ratio percent of control: "114% (active)"
- molecule: "O=C(CC1NCCc2ccccc21)Nc1cccc(Cl)c1 (configuration not stated)"
  ratio percent of control: "115% (active)"
